Catalogue of molecules with associated inhibition
STUDY_SYSTEM: Aldo-keto reductase family 1 member B1 (Bos taurus)
EXPERIMENT_DESCRIPTION: NADPH-dependent inhibition of glyceraldehyde reduction by partially purified aldose reductase from bovine lens at 10e-5 M

> print(dat)
                                   molecule  measured.attribute  result
1  O=C1CC2(C(=O)N1)c1ccccc1S(=O)(=O)N2Cc1ccc(C(F)(F)F)cc1 (configuration not stated)          inhibition     34%

What value of measured inhibition is listed for CN1C2(CC(=O)NC2=O)c2ccccc2S1(=O)=O (configuration not stated) ? 40%

What would you report for O=C1CC2(C(=O)N1)c1ccccc1S(=O)(=O)N2c1ccc(Br)cc1 (configuration not stated) ? 0%

Could you do the same for O=C1CC2(C(=O)N1)c1ccccc1S(=O)(=O)N2Cc1ccccc1 (configuration not stated) , please? 45%

Also, O=C1CC2(C(=O)N1)c1ccccc1S(=O)(=O)N2Cc1ccc(Br)cc1F (configuration not stated) please. 52%

Now this one: O=C1CC2(C(=O)N1)c1ccccc1S(=O)(=O)N2Cc1ccc2ccccc2c1 (configuration not stated) 57%

Also check O=C1CC2(C(=O)N1)c1ccccc1S(=O)(=O)N2CCc1ccc(Br)cc1 (configuration not stated) 0%
